# PROTOCOL: small-molecule binders of probe aInhba, primary screen, biochemical, small-molecule microarray, 635/667 nm fluorescence (AID 1148);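 also: score merges 667nm spot fluorescence with signal-to-noise for antibody binding to printed compounds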
# EXPERIMENTAL_CONTEXT: higher = more signal
I would appreciate it if you labelled entries Condition met when composite z-score is -0.06 or higher, otherwise Condition not met.

COMPOUND | CLASS
CCc1cc2c(nc1CC)CCN(CCC(C)=NOC(C)CN1CCCc3nc(C)c(C)cc31)C2 (stereo unspecified) | Condition met
CN(C)CCCNC(=O)[C@@H]1c2ccccc2C(=O)N(Cc2cc(F)cc(C(F)(F)F)c2)[C@H]1c1ccc(CO)cc1 | Condition not met
C=C(COC)/C(=C/C[C@H](OC(=O)c1ccncc1)c1ccc(CO)o1)c1cc(C(=O)OC)ccc1OC | Condition met
CC(CCC(=O)OC[C@H]1O[C@H](C#Cc2ccccc2)C=C[C@@H]1Oc1ccc(C)cc1)=NOC[C@@H](O)[C@H]1O[C@@H]2OC(C)(C)O[C@@H]2[C@H]1O | Condition not met
Cc1ccc(S(=O)(=O)N[C@@H]2COC(=O)[C@H](C)COC(=O)CC=C[C@H]2C)cc1 | Condition not met
COc1ccccc1CN1C(=O)c2ccccc2[C@@H](C(=O)NCC(F)(F)F)[C@@H]1c1ccc(CO)cc1 | Condition met
CO[C@@H]1COC(=O)CCC[C@@H](C)[C@H](OC)COC(=O)[C@H](Cc2ccccc2)NC(=O)CC=C[C@H]1C | Condition not met
CC(C)=CCCC(C)=CCON=C1[C@H]2CCn3c(=O)n(Cc4cc5c(cc4Cl)OCO5)c(=O)n3[C@H]2[C@H](O)[C@@H]2O[C@H]12 | Condition not met
O=C1NC(=O)C2C1C=CC(C(O)Cc1ccccc1)N2Nc1ccccn1 (stereo unspecified) | Condition met
CC=CC1=C(CO)[C@H](O)[C@H]2O[C@H]2[C@H]1O | Condition not met
CO[C@@H]1COC(=O)CCC[C@@H](C)[C@H](OC)COC(=O)CCC[C@H]1C | Condition met
O=C1[C@H]2[C@H]3[C@H](O)[C@H](O)CC(=NOC[C@@H](O)COCc4ccco4)[C@H]3CC[C@H]2C(=O)N1C1CCCCC1 | Condition met
CC(C)CON=C1C[C@@H](O)[C@@H](O)[C@@H]2[C@@H]3C(=O)N([C@@H](C)c4ccccc4)C(=O)[C@@H]3CC[C@H]12 | Condition met
CCc1cc2c(nc1CC)CCN(CCC(C)=NOC[C@@H](O)[C@H]1O[C@@H]3OC(C)(C)O[C@@H]3[C@H]1O)C2 | Condition met
CC(CCN1CCCCc2nc(C)c(C)cc21)=NOC(C)CN1CCCCc2nc(C)c(C)cc21 (stereo unspecified) | Condition met
CCOC(=O)CCN1C(=O)[C@H]2[C@H]3[C@H](O)[C@H](O)CC(=NOC[C@@H](O)COCc4ccco4)[C@H]3CC[C@H]2C1=O | Condition not met

---

z-score listing for selected compounds.
# PROTOCOL: PSAC antagonists in infected red cells, primary screen, cell-based, P. falciparum Indochina, OD700, 18 h (AID 1157)
# EXPERIMENTAL_CONTEXT: P. falciparum Indochina infected erythrocytes, osmotic lysis OD700, 18 h; higher = more signal, called active from +8 up or from −8 down

STRUCTURE_SMILES | z-score
CC(C)NC(=O)[C@@]1(c2ccc([N+](=O)[O-])cc2)CC(=O)N(CC23CC4CC(CC(C4)C2)C3)[C@@H]1c1ccc(CO)cc1I | 1.28
CC(C)OC(=O)C=C1C[C@@H](c2ccc(C#N)cc2)O[C@@H](c2ccc(C#N)cc2)O1 | 0.439
CC(C)[C@H](NC(=O)OC(C)(C)C)[C@@H](O)CC(=O)OC(C)(C)C | 0.128
CO[C@H]1COC(=O)CC=C[C@H](C)[C@@H](NS(=O)(=O)c2ccc(C)cc2)COC(=O)CC=C[C@@H]1C | -0.592
